# System: HL-60
# Method description: Antiproliferative activity against human HL60 cells at 10 umole
# Type: functional
The label True is reserved for Activity strictly under 20%; False covers values equal to or above it.

>  <Compound structure>
CC(C)(C)OC(=O)N[C@@H](CO)C(=O)N[C@H](/C=C/C(=O)O)Cc1ccc(O)cc1

>  <Target desc>
HL-60

>  <Cat>
True

$$$$
>  <Compound structure>
CCOC(=O)/C=C/[C@H](Cc1ccc(O)cc1)NC(=O)[C@@H](NC(=O)OC(C)(C)C)C(C)C

>  <Target desc>
HL-60

>  <Cat>
False

$$$$
>  <Compound structure>
CCOC(=O)/C=C/[C@H](C[C@@H]1CCNC1=O)NC(=O)[C@H](CC(C)C)NC(=O)[C@H](CO)NC(=O)[C@@H](NC(=O)OC(C)(C)C)C(C)C

>  <Target desc>
HL-60

>  <Cat>
True

$$$$
>  <Compound structure>
CCOC(=O)/C=C/[C@H](Cc1ccccc1)NC(=O)[C@H](Cc1ccccc1)NC(=O)[C@H](CC(C)C)NC(=O)OC(C)(C)C

>  <Target desc>
HL-60

>  <Cat>
True

$$$$
>  <Compound structure>
CC(C)(C)OC(=O)N[C@@H](Cc1ccccc1)C(=O)N[C@@H](CO)C(=O)N[C@H](/C=C/C(=O)O)C[C@@H]1CCNC1=O

>  <Target desc>
HL-60

>  <Cat>
False

$$$$

A record lists CCOC(=O)/C=C/[C@H](Cc1ccc(O)cc1)NC(=O)[C@H](Cc1ccccc1)NC(=O)[C@H](CC(C)C)NC(=O)OC(C)(C)C . Is its Activity below 20%? True

Also CCOC(=O)/C=C/[C@H](Cc1ccccc1)NC(=O)[C@@H](NC(=O)OC(C)(C)C)C(C)C ? False
